Plant response rating, Pigweed reference
Tested on: pigweed (Amaranthus retroflexus)
test: Test A postemergence
Assay type: in vivo
applied.conditions: 125 g ai/ha, postemergence; visual rating after approx. 10 d, 0 to 100 scale (0 no effect, 100 complete control)
Give a plain numeric answer without units written out.

Worked examples follow.
O=C1NCC(c2ccc(Oc3ccccc3)cc2)C1C(=O)Nc1ccccc1Cl (racemic) | 0
O=C1NCC(c2cc(C(F)(F)F)ccc2F)C1C(=O)Nc1cccc(F)c1F (centres unmarked) | 0
C=CCN1CC(c2cccc(C(F)(F)F)c2)C(C(=O)Nc2cccc(F)c2F)C1=O (centres unmarked) | 50

Form: molecule = O=C1NCC(c2ccsc2Br)C1C(=O)Nc1ccccc1F (centres unmarked) ; Plant response rating, Pigweed = 0

For record O=C1NCC(c2cccc(C(F)(F)F)c2)C1C(=O)Nc1ccccc1O (centres unmarked) the listed Plant response rating, Pigweed is 0

The reported measurements were obtained from patent US12077503B2.
